src = ChEMBL document CHEMBL1806384

ASSAY SYSTEM: Aminopeptidase N (Sus scrofa)
MEASUREMENT NOTES: Inhibition of porcine kidney microsomal aminopeptidase N at 100 uM after 1 hr by fluorescence polarization based competition assay
inhibition values by entry
Number only, in %; omit the unit.

Recorded results for 6 molecules are shown here.
COc1ccc(C(=O)c2coc3c(Cl)c(Cl)c(O)cc23)cc1: 0
COc1ccc(C(=O)c2coc3c2C(=O)C(=O)C(Br)=C3)cc1: 22
COc1cc(C(=O)c2coc3c2C(=O)C(=O)C(Cl)=C3Cl)cc(OC)c1OC: 50
COc1ccc(C(=O)c2coc3c2C(=O)C(=O)C=C3Cl)cc1: 68
COc1ccc(C(=O)c2coc3cc(Cl)c(O)c(Cl)c23)cc1: 0
COc1ccc(C(=O)c2coc3ccc(O)cc23)cc1: 4

# evaluate next
Enquiry: I'd like to know its inhibition. The molecule in question is `COc1cc(C(=O)c2coc3c(Br)c(Br)c(O)cc23)cc(OC)c1OC`
Return: 10

----------
ASSAY SYSTEM: Aminopeptidase N (Sus scrofa) (UniProt P15145)
Sequence (P15145 whole entry): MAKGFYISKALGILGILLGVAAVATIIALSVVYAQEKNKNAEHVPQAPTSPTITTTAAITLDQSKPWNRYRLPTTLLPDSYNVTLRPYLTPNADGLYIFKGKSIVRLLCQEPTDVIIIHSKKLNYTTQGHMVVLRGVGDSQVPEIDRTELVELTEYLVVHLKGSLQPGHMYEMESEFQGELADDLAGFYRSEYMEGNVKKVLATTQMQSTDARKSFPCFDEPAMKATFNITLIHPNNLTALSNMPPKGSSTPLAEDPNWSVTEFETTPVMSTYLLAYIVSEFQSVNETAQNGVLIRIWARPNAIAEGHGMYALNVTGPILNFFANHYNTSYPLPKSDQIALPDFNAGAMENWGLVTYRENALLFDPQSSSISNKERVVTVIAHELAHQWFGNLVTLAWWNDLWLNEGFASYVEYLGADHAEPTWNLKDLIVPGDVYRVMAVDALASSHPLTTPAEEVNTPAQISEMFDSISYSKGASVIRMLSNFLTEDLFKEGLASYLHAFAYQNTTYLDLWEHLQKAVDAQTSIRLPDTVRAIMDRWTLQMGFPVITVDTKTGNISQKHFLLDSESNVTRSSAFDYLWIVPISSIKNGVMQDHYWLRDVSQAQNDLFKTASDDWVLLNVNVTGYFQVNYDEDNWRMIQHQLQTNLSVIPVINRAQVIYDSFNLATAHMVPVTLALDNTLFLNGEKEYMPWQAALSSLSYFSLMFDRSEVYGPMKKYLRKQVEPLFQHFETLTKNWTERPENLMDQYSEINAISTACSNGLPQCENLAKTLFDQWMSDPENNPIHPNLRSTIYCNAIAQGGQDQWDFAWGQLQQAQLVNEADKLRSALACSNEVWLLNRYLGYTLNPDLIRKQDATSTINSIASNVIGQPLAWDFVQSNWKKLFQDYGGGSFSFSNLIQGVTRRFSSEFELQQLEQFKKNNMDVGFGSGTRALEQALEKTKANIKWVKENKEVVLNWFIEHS
MEASUREMENT NOTES: Inhibition of porcine kidney microsomal aminopeptidase N at 100 uM after 1 hr by fluorescence polarization based competition assay
MEASURE: inhibition (%)
Write the number in % without appending the unit.

Some solved cases for reference:
COc1ccc(C(=O)c2coc3c(Br)cc(O)c(Br)c23)cc1: 0
COc1cc(C(=O)c2coc3c(Cl)c(Cl)c(O)cc23)cc(OC)c1OC: 2
O=C1C=Cc2occ(C(=O)c3ccccc3)c2C1=O: 5
COc1ccc(C(=O)c2coc3c2C(=O)C(=O)c2ccccc2-3)cc1: 0

Now for the molecule whose inhibition we want.
Enquiry: Which inhibition is reported for this molecule? `COc1ccc(C(=O)c2coc3cc(Br)c(O)cc23)cc1`
Return: 0

----------
ASSAY SYSTEM: Interstitial collagenase (Homo sapiens)
MEASUREMENT NOTES: Inhibition of human recombinant MMP1 at 100 uM after 1 hr by fluorescence polarization based competition assay
Catalogue of compounds with associated inhibition
Quick reminder: number only, in %, skip the unit.

Below: 3 compounds and their reported inhibition.
COc1ccc(C(=O)c2coc3c(Br)cc(O)c(Br)c23)cc1: 0
COc1ccc(C(=O)c2coc3c(Br)c(Br)c(O)cc23)cc1OC: 0
COc1ccc(C(=O)c2coc3c(Cl)cc(O)c(Cl)c23)cc1: 0

Enquiry: Could you tell me which inhibition is on file for `COc1ccc(C(=O)c2coc3c2C(=O)C(=O)C=C3)cc1` ?
Return: 6

Enquiry: GET /values?readout=inhibition&item= `COc1cc(C(=O)c2coc3c(Cl)c(Cl)c(O)cc23)cc(OC)c1OC`
Return: 0

Enquiry: Could you share which inhibition value was measured for `COc1cc(C(=O)c2coc3c(Br)c(Br)c(O)cc23)cc(OC)c1OC` ?
Return: 0

Enquiry: Fill in the blank: the reported inhibition of `COc1ccc(C(=O)c2coc3cc(Br)c(O)cc23)cc1` is ____.
Return: 10

Enquiry: State the recorded inhibition for this entry: `COc1cc(C(=O)c2coc3c2C(=O)C(=O)c2ccccc2-3)cc(OC)c1OC`
Return: 0

Enquiry: Can you share its inhibition? I mean this compound: `O=C1C=Cc2occ(C(=O)c3ccccc3)c2C1=O`
Return: 0

----------
ASSAY SYSTEM: UniProt Q9JN24
Sequence (whole entry): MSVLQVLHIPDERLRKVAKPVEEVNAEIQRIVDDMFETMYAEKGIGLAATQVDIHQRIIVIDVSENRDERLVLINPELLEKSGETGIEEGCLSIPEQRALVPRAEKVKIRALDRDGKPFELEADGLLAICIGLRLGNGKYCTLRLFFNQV
MEASUREMENT NOTES: Inhibition of Escherichia coli peptide deformylase at 100 uM after 1 hr by fluorescence polarization based competition assay
Below, each entry is listed with its recorded inhibition.

COc1ccc(C(=O)c2coc3c(Cl)c(Cl)c(O)cc23)cc1: 0%
COc1ccc(C(=O)c2coc3c(Br)c(Br)c(O)cc23)cc1: 3%
COc1ccc(C(=O)c2coc3c(Br)c(Br)c(O)cc23)cc1OC: 0%
O=C1C=Cc2occ(C(=O)c3ccccc3)c2C1=O: 32%
COc1ccc(C(=O)c2coc3c(Cl)cc(O)c(Cl)c23)cc1: 0%
COc1ccc(C(=O)c2coc3ccc(O)c(Br)c23)cc1: 0%
O=C(c1ccccc1)c1coc2c(Cl)c(Cl)c(O)cc12: 1%
COc1ccc(C(=O)c2coc3cc(Cl)c(O)c(Cl)c23)cc1: 3%
COc1ccc(C(=O)c2coc3c2C(=O)C(=O)C(Cl)=C3Cl)cc1OC: 63%
COc1cc(C(=O)c2coc3c(Br)c(Br)c(O)cc23)cc(OC)c1OC: 7%

Here is the next item to consider.
Enquiry: What does the record list as inhibition for `COc1ccc(C(=O)c2coc3c2C(=O)C(=O)C(Br)=C3)cc1` ?
Return: 5%
